biological target: Activin receptor type-1B (Homo sapiens); settings: at 10 µM
Each entry gets F if its residual activity stays under 90%, and T if its residual activity is 90% or above.

CCCC(=O)Oc1ccc2[nH]c(C(=O)c3cc4ccccc4[nH]3)cc2c1
T
COc1cc2nccc(Oc3ccc(NC(=S)NC(=O)c4ccccc4C)cc3)c2cc1OC
T
O=c1c(-c2ccc(F)cc2)c(-c2ccncc2)[nH]n1-c1ccc(Cl)cc1
F
O=C(O)/C=C/c1cc(Br)c(Br)c(Br)c1Br
F
O=C1Cc2c([nH]c3ccc(Br)cc23)-c2ccccc2N1
F
CC(C)(C)n1nc(Cc2cccc3ccccc23)c2c(N)ncnc21
F
O=C(Nc1ccc(Cl)cc1)c1ccccc1NCc1ccncc1
F
O=C1NC(=O)C(c2cn(CCCn3ccnc3)c3ccccc23)=C1Nc1ccccc1
T
CN([C@@H](Cc1ccc(OS(=O)(=O)c2cccc3cnccc23)cc1)C(=O)N1CCN(c2ccccc2)CC1)S(=O)(=O)c1cccc2cnccc12
F

---

Let's look at some compounds and their measured residual activity.
target: Cyclin-dependent kinase 5/CDK5 activator 1 (Homo sapiens) (UniProt Q00535+Q15078); conditions: at 1 µM
Sequence (Q00535 whole entry): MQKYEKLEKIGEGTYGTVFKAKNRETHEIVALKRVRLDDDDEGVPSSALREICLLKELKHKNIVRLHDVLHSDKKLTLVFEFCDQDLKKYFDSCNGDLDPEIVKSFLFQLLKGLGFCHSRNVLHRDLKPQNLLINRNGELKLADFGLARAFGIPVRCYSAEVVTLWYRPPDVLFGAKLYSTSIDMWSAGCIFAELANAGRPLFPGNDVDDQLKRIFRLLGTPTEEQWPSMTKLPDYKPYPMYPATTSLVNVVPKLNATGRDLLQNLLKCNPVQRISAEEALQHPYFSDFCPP
Sequence (Q15078 99-307 partner limits assumed): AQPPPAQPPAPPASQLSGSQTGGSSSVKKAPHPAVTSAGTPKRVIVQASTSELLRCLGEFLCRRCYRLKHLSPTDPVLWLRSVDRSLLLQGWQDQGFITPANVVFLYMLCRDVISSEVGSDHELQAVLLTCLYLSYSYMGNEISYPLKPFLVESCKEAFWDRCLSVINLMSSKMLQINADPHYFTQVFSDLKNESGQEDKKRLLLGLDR
Property measured: residual activity (%)

CC(C)N(CCC(=O)c1ccc2ccccc2c1)Cc1ccccc1
87
COc1cc2c(cc1OC)-c1n[nH]c(Nc3cccc(F)c3)c1C2
82
O=c1cc(N2CCNCC2)oc2c(-c3ccccc3)cccc12
100
NC(=O)Nc1sc(-c2ccc(F)cc2)cc1C(N)=O
70
NC(=O)c1cccc(-c2cc(Nc3ccc(OC(F)(F)F)cc3)ncn2)c1
93
O=C(CCCc1ccc(-c2ccccc2F)cc1)Nc1ccc(O)cc1
104
CCN(CC)CCNC(=O)c1c(C)[nH]c(/C=C2\C(=O)Nc3ccc(Cl)cc32)c1C
77
O=c1cc(N2CCOCC2)oc2c1ccc1ccccc12
80
Nc1n[nH]c2nc3ccccc3nc12
80
O=C1NC(=O)C(c2c[nH]c3ccccc23)=C1c1c[nH]c2ccccc12
74
N#C/C(=C1/Nc2ccccc2S1)c1ccnc(NCCc2cccnc2)n1
74

---

Biological target: Testis-specific serine/threonine-protein kinase 1 (Homo sapiens) (UniProt Q9BXA7)
Sequence (whole entry): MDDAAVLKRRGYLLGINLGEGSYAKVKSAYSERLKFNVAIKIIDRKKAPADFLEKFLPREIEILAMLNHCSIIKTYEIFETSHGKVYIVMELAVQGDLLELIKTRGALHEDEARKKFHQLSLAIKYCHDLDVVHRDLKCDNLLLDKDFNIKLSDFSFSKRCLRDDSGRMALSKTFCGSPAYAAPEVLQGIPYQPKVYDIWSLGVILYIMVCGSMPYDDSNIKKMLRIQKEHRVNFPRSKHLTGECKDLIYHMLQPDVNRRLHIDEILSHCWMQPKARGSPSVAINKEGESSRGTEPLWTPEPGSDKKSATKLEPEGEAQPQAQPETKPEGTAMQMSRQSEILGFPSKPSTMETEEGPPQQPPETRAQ
Conditions: at 1 µM
Let's look at some compounds and their measured residual activity.
Property measured: residual activity (%)

Cn1c2ccccc2c2c3c(c4c5ccccc5n(CCC#N)c4c21)CNC3=O
12
CC(C)N(CCC(=O)c1ccc2ccccc2c1)Cc1ccccc1
81
c1ccc(-c2cnc(Nc3ccc(OCCN4CCCC4)cc3)s2)cc1
100
O=C1C(Cl)=C(N2C(=O)CCC2=O)C(=O)c2ccccc21
101
O=C(NC(NC(=S)Nc1ccc(F)c([N+](=O)[O-])c1)C(Cl)(Cl)Cl)C(c1ccccc1)c1ccccc1 (stereo not given)
87
CCCC(=O)Oc1ccc2[nH]c(C(=O)c3cc4ccccc4[nH]3)cc2c1
93
CC(C)c1nn(-c2c(Cl)cccc2Cl)c2nc(Cc3ccc(OCCO)cc3)[nH]c(=O)c12
91
CCCCc1c(-c2ccc(O)cc2)[nH]c2nccnc12
58
COc1ccc(-c2cnc3c(-c4ccsc4)cnn3c2)cc1
98
O=C1Nc2ccc(Cl)cc2/C1=C/c1cc(Cl)c(O)c(Cl)c1
95
O=S(=O)(NCCNC/C=C/c1ccc(Br)cc1)c1cccc2cnccc12
100
CCOC(=O)c1c(C)[nH]c(/C=C2\C(=O)Nc3ccccc32)c1C
93
CCCCc1c(-c2ccc(OC)cc2)[nH]c2nccnc12
63
Nc1ncnc2c1c(-c1ccc(Oc3ccccc3)cc1)cn2C1CCCC1
94
COc1cc2c(cc1OC)-c1n[nH]c(Nc3cccc(F)c3)c1C2
77
NCCNc1ncc(C(N)=O)c(Nc2cccc(C(F)(F)F)c2)n1
56
COc1ccc(Cl)cc1NC(=O)Nc1cc(C)nc2ccccc12
95
O=c1cc(N2CCNCC2)oc2c(-c3ccccc3)cccc12
101
O=C1Cc2c([nH]c3ccc(Br)cc23)-c2ccccc2N1
87
Nc1ncnc2c1cnn2-c1ccccc1
92

---

biological target: Receptor-type tyrosine-protein kinase FLT3 (Homo sapiens) (UniProt P36888); conditions: at 1 µM
Sequence (P36888 whole entry): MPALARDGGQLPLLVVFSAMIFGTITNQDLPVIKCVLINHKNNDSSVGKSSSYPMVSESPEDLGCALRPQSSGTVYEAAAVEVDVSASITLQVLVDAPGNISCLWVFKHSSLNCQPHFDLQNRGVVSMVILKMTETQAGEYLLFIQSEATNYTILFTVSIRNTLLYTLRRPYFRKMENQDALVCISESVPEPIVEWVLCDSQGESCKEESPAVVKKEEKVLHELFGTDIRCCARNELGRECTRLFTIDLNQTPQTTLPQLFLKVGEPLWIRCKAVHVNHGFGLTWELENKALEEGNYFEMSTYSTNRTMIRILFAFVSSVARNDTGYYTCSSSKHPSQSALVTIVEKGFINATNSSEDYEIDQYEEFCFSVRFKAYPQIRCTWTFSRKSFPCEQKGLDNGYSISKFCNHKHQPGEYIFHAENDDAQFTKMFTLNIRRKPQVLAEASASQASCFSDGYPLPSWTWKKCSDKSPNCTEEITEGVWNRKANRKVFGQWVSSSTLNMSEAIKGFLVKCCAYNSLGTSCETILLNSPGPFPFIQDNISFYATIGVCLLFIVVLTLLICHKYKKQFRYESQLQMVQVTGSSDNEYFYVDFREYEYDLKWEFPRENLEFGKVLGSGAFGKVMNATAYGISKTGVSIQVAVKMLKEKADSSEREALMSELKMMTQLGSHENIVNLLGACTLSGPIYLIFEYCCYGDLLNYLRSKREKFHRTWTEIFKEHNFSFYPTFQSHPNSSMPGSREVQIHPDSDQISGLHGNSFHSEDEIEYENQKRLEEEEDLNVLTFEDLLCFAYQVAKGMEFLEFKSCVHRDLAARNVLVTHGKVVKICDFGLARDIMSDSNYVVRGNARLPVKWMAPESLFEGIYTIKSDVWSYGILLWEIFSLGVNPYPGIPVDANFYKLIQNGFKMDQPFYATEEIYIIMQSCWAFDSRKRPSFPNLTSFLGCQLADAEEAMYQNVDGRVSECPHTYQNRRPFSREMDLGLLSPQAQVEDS
Property measured: residual activity (%)

O=C1Cc2c([nH]c3ccc(Br)cc23)-c2ccccc2N1
65
CC(C)[C@H](CO)Nc1nc(Nc2cc(N)cc(Cl)c2)c2ncn(C(C)C)c2n1
12
Nc1n[nH]c2nc3ccccc3nc12
70
O=c1cc(N2CCNCC2)oc2c(-c3ccccc3)cccc12
78
CCCCc1c(-c2ccc(OC)cc2)[nH]c2nccnc12
27
COc1cc2ncnc(Nc3cccc(Cl)c3)c2cc1OC
111
CC(C)c1nn(-c2c(Cl)cccc2Cl)c2nc(Cc3ccc(OCCO)cc3)[nH]c(=O)c12
81
O=C1NC(=O)c2c1c1c3ccccc3[nH]c1n1cncc21
18
O=C1C(Cl)=C(N2C(=O)CCC2=O)C(=O)c2ccccc21
90
CSc1nc(-c2ccc(F)cc2)c(-c2ccnc(NC(C)c3ccccc3)c2)[nH]1 (stereo unspecified)
86
O=C(Nc1nc2ccccc2n1CCN1CCOCC1)c1cccc([N+](=O)[O-])c1
38

---

target: Serine/threonine-protein kinase haspin (Homo sapiens) (UniProt Q8TF76); conditions: at 1 µM
Sequence (Q8TF76 whole entry): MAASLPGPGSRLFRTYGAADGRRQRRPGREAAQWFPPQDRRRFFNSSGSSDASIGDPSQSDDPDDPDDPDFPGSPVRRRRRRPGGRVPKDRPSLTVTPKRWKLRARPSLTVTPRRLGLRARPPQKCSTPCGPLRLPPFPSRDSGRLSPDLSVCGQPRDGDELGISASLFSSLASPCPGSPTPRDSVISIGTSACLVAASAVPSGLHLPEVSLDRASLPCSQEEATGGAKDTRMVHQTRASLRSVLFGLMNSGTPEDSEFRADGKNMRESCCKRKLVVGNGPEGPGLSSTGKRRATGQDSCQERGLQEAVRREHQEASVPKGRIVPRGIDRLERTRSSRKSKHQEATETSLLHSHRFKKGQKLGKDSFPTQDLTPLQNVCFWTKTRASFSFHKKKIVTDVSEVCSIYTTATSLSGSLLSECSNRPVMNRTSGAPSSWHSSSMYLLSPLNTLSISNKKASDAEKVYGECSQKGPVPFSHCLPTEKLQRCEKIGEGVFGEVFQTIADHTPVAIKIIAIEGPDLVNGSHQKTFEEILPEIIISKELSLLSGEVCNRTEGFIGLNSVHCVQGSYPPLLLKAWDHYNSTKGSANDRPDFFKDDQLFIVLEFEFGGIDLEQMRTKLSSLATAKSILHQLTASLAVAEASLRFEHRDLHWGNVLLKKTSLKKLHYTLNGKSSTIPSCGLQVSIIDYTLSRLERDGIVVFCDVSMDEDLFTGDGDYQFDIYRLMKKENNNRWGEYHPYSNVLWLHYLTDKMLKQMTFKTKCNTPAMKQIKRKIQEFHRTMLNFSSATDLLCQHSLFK
Let's look at some compounds and their measured residual activity.
Property measured: residual activity (%)

O=c1cc(N2CCOCC2)oc2c1ccc1ccccc12
74
NC(=O)Nc1sc(-c2ccc(F)cc2)cc1C(N)=O
63
CC(C)[C@H](CO)Nc1nc(Nc2cc(N)cc(Cl)c2)c2ncn(C(C)C)c2n1
57
NC(=O)c1ccc(-c2nc(-c3ccc4c(c3)OCCO4)c(-c3ccccn3)[nH]2)cc1
95
c1ccc(-c2cnc(Nc3ccc(OCCN4CCCC4)cc3)s2)cc1
77
O=C(O)/C=C/c1cc(Br)c(Br)c(Br)c1Br
79

---

molecular target: Insulin-like growth factor 1 receptor (Homo sapiens) (UniProt P08069); details: at 10 µM
Sequence (P08069 31-736 limits assumed): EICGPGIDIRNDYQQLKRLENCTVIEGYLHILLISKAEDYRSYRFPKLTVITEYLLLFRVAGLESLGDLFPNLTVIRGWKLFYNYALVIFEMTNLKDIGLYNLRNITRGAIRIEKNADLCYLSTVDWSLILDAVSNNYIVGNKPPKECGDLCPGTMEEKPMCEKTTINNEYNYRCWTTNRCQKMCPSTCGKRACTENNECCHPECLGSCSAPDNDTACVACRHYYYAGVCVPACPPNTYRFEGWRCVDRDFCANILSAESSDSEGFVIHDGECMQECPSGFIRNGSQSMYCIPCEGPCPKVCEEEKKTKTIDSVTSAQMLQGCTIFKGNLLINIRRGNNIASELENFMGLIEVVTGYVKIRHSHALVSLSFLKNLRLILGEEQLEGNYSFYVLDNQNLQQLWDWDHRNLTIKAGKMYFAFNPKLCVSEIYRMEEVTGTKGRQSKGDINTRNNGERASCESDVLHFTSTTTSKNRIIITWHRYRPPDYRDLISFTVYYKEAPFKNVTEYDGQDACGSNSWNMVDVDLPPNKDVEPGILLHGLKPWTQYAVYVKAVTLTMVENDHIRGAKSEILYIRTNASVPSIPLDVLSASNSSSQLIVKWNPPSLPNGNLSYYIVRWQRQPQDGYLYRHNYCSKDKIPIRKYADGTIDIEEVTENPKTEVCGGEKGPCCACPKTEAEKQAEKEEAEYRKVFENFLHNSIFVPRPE
Sequence (P08069 741-1367 limits assumed): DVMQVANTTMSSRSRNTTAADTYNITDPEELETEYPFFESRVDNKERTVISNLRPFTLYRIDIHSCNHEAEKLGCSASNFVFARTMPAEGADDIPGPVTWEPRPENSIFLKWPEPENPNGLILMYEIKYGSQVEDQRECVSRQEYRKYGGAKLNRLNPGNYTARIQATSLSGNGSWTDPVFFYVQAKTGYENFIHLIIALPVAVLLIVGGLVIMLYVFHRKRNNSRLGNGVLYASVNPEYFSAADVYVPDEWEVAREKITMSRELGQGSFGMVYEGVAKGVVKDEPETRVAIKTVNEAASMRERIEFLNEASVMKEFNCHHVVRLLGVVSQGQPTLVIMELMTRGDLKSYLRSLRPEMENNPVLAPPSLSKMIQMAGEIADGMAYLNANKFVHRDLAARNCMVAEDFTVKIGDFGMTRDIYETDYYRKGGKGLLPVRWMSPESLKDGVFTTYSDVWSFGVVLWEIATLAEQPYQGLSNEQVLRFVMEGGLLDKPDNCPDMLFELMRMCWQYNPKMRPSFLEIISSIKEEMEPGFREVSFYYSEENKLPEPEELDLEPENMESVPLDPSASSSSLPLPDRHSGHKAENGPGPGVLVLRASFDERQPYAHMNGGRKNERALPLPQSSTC
Property measured: residual activity

CN(C)S(=O)(=O)c1ccc2c(c1)/C(=C/c1cc3c([nH]1)CCCC3)C(=O)N2
134%
CC(C)(C)n1nc(Cc2cccc3ccccc23)c2c(N)ncnc21
96%
COc1ccc(COc2ccc(Cc3cnc(N)nc3N)cc2OC)cc1
133%
CCOc1nc(NC(=O)Cc2cc(OC)ccc2OC)cc(N)c1C#N
130%
Nc1n[nH]c2nc3ccccc3nc12
132%
COc1ccc(CNC(=O)Nc2ncc([N+](=O)[O-])s2)cc1
123%
O=C(CCCc1ccc(-c2ccccc2F)cc1)Nc1ccc(O)cc1
100%
N#Cc1c(NC(=O)c2cccc3ccccc23)sc2c1CCCC2
128%
O=C1NC(=O)C(c2cn(CCCO)c3ncccc23)=C1c1cnccn1
124%
CN([C@@H](Cc1ccc(OS(=O)(=O)c2cccc3cnccc23)cc1)C(=O)N1CCN(c2ccccc2)CC1)S(=O)(=O)c1cccc2cnccc12
182%
O=C(c1ccccc1)c1ccc(N2CCOCC2)cc1O
81%
O=c1cc(N2CCNCC2)oc2c(-c3ccccc3)cccc12
149%
COc1cc2c(cc1OC)-c1n[nH]c(Nc3cccc(F)c3)c1C2
115%
Nc1ncnc2[nH]nc(Nc3ccc(F)cc3)c12
94%
COc1ccc2c(c1)c(C1=C(c3c[nH]c4ccccc34)C(=O)NC1=O)cn2CCCN(C)C
104%
O=C1NC(=O)c2c1c1c3ccccc3[nH]c1n1cncc21
14%
Nc1ncnc2c1c(-c1ccc(Oc3ccccc3)cc1)cn2C1CCCC1
119%
N#C/C(=C1/Nc2ccccc2S1)c1ccnc(NCCc2cccnc2)n1
72%
O=C(NC(NC(=S)Nc1ccc(F)c([N+](=O)[O-])c1)C(Cl)(Cl)Cl)C(c1ccccc1)c1ccccc1 (configuration not stated)
42%
NC(=O)c1ccc(-c2nc(-c3ccc4c(c3)OCCO4)c(-c3ccccn3)[nH]2)cc1
137%
CCCCc1c(-c2ccc(OC)cc2)[nH]c2nccnc12
136%
c1ccc(-c2cnc(Nc3ccc(OCCN4CCCC4)cc3)s2)cc1
108%

---

biological target: Serine/threonine-protein kinase STK11 (Homo sapiens); conditions: at 1 µM
Let's look at some compounds and their measured residual activity.
Property measured: residual activity (%)

Nc1ncnc2c1cnn2-c1ccccc1
96
O=c1cc(N2CCNCC2)oc2c(-c3ccccc3)cccc12
97
O=C(NC(NC(=S)Nc1ccc(F)c([N+](=O)[O-])c1)C(Cl)(Cl)Cl)C(c1ccccc1)c1ccccc1 (stereo not given)
98
CN(C)S(=O)(=O)c1ccc2c(c1)/C(=C/c1cc3c([nH]1)CCCC3)C(=O)N2
99
N#C/C(=C1/Nc2ccccc2S1)c1ccnc(NCCc2cccnc2)n1
96
O=C1NC(=O)C(c2c[nH]c3ccccc23)=C1c1c[nH]c2ccccc12
100
O=C1Cc2c([nH]c3ccc(Br)cc23)-c2ccccc2N1
97
Nc1nc(Nc2ccc(S(N)(=O)=O)cc2)nn1C(=O)c1c(F)cccc1F
99
CC(C)(C)n1nc(Cc2cccc3ccccc23)c2c(N)ncnc21
91
CC(C)c1nn(-c2c(Cl)cccc2Cl)c2nc(Cc3ccc(OCCO)cc3)[nH]c(=O)c12
90

Source of measurements: ChEMBL document CHEMBL2218924
